ASSAY_SUMMARY: collision cross section (TIMS, N2 drift gas) of the primary ion; higher = larger gas-phase ion size
TEST_CONTEXT: ionization mode: ESI+; ion species: [M+H]+
ASSAY_ENDPOINT: collision cross section (Å²)
Write the answer as a number in Å², unit excluded.

Answered examples (2):
* COC(=O)Nc1nc2ccccc2[nH]1 [Carbendazim] | 137.16
* Cn1c(N)nc2ncc(-c3ccccc3)cc21 [2-Amino-1-methyl-6-phenylimidazo[4,5-b]pyridine (PhIP)] | 152.56

Form field: reported collision cross section of CC(C)CCCCOC(=O)c1ccccc1C(=O)OCCCCC(C)C [Diisoheptyl phthalate] 204.46

Likewise for O=C(O)c1ccc(-c2ccccc2-c2nnn[nH]2)cc1 [Valsartan acid] ? 161.62

Likewise for CO/C=C(/C(=O)OC)c1ccccc1COc1cccc(C(F)(F)F)n1 [Picoxystrobin] ? 174.95

Likewise for CC(C1=C(CCN(C)C)Cc2ccccc21)c1ccccn1 (stereo unspecified) [Dimethindene] ? 171.03

Likewise for CCCCCCCCOc1ccc(C(=O)c2ccccc2)c(O)c1 [2-Hydroxy-4-(octyloxyl)benzophenone] ? 193.92

Likewise for C#CCOc1ccc(CCNC(=O)C(OCC#C)c2ccc(Cl)cc2)cc1OC (stereo unspecified) [Mandipropamid] ? 194.91

Likewise for CC(C)Nc1nc(N)nc(Cl)n1 [Atrazine desethyl] ? 138.83

Likewise for O=C1CCCC2C3CC(CN12)C1CCCCN1C3 (stereo unspecified) [Lupanine] ? 154.3

Likewise for Cc1cccc(C(=O)O)c1N(Cn1cccn1)C(=O)C(=O)O [Metazachlor BH479-12] ? 160.33

Origin of the recorded values: the supplement of paper PMC12613149
